- MEASURED_TARGET: Ubiquitin-conjugating enzyme E2 N (Homo sapiens)
- ASSAY_DETAILS: UBC13 polyubiquitination inhibitors, SAR follow-up, biochemical, TR-FRET, set 4 (AID 602404)
The source made the active and inactive calls. No rule for the calls is given here.

{"columns": ["MOLECULE", "IC50"],
 "data": [
  ["O=C(NCC1CCN(Cc2cccc(Cl)c2)CC1)[C@H]1CCCN(c2ncnc3c2nc2n3CCCC2)C1", "2.66 µM"],
  ["Cc1ccc(NC(=O)C2CCN(c3ncnc4c3nc3n4CCCC3)CC2)cc1Br", "inactive"],
  ["CC1CC(C)CN(C(=O)C2CCN(c3ncnc4c3nc3n4CCCCC3)CC2)C1 (stereo not given)", "inactive"],
  ["CC1CCCC(C)N1CCCNC(=O)C1CCCN(c2ncnc3c2nc2n3CCCCC2)C1 (stereo not given)", "8.74 µM"],
  ["O=C(Nc1ccc(F)c(Cl)c1)C1CCN(c2ncnc3c2nc2n3CCCCC2)CC1", "5.67 µM"],
  ["Cc1cccc(NC(=O)C2CCCN(c3ncnc4c3nc3n4CCCC3)C2)c1 (stereo not given)", "inactive"],
  ["Cc1cc(C)cc(NC(=O)C2CCN(c3ncnc4c3nc3n4CCCCC3)CC2)c1", "> 100 µM (inactive)"],
  ["O=C(NCc1cccc(Cl)c1)C1CCCN(c2ncnc3c2nc2n3CCCC2)C1 (stereo not given)", "> 100 µM (inactive)"],
  ["O=C(C1CCN(c2ncnc3c2nc2n3CCCCC2)CC1)N1CCN(c2ccccn2)CC1", "inactive"],
  ["O=C(NCc1ccc(Cl)c(Cl)c1)C1CCN(c2ncnc3c2nc2n3CCCC2)CC1", "> 100 µM (inactive)"]
]}

----------
- MEASURED_TARGET: Ubiquitin-conjugating enzyme E2 N (Homo sapiens) (UniProt P61088)
- Sequence (P61088 whole entry, looked up): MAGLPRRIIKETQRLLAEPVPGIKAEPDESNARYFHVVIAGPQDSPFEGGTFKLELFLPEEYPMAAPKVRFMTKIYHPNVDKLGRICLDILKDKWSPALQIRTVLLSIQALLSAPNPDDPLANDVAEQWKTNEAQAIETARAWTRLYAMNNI
- ASSAY_DETAILS: UBC13 polyubiquitination inhibitors, SAR follow-up, biochemical, TR-FRET, set 4 (AID 602404)
The source made the active and inactive calls. The rule behind the calls is not given here.
Classes used: active, inactive

{"columns": ["COMPOUND", "LABEL"],
 "data": [
  ["O=C(NCCCN1CCN(c2ccc(F)cc2)CC1)C1CCCN(c2ncnc3c2nc2n3CCCCC2)C1 (stereo unspecified)", "active"],
  ["Cc1cc(Cl)ccc1NC(=O)C1CCN(c2ncnc3c2nc2n3CCCCC2)CC1", "inactive"],
  ["O=C(Nc1ccc(CN2CCCCC2)cc1)C1CCN(c2ncnc3c2nc2n3CCCCC2)CC1", "inactive"],
  ["Cc1ccc(C)c(CN2CCC(CNC(=O)C3CCCN(c4ncnc5c4nc4n5CCCCC4)C3)CC2)c1 (stereo unspecified)", "active"],
  ["Cc1ccc(NC(=O)C2CCN(c3ncnc4c3nc3n4CCCCC3)CC2)cc1Cl", "active"],
  ["Cc1ccc(C)c(N2CCN(CCCNC(=O)C3CCCN(c4ncnc5c4nc4n5CCCCC4)C3)CC2)c1 (stereo unspecified)", "active"]
]}

----------
- MEASURED_TARGET: Ubiquitin-conjugating enzyme E2 N (Homo sapiens) (UniProt P61088)
- ASSAY_DETAILS: UBC13 polyubiquitination inhibitors, SAR follow-up, biochemical, TR-FRET, set 4 (AID 602404)
The source made the active and inactive calls. The rule behind the calls is not given here.
Outcomes: active, inactive

{"columns": ["COMPOUND", "MEASURED_TARGET", "LABEL"],
 "data": [
  ["COc1ccc(NC(=O)C2CCN(c3ncnc4c3nc3n4CCCCC3)CC2)cc1Cl", "Ubiquitin-conjugating enzyme E2 N (Homo sapiens) (UniProt P61088)", "inactive"],
  ["Cc1cccc(NC(=O)C2CCCN(c3ncnc4c3nc3n4CCCCC3)C2)c1 (centres undefined)", "Ubiquitin-conjugating enzyme E2 N (Homo sapiens) (UniProt P61088)", "inactive"],
  ["O=C(NCC1CCN(Cc2ccccc2F)CC1)C1CCCN(c2ncnc3c2nc2n3CCCCC2)C1 (centres undefined)", "Ubiquitin-conjugating enzyme E2 N (Homo sapiens) (UniProt P61088)", "active"],
  ["O=C(NCC1CCN(Cc2ccc(Cl)cc2)CC1)C1CCCN(c2ncnc3c2nc2n3CCCCC2)C1 (centres undefined)", "Ubiquitin-conjugating enzyme E2 N (Homo sapiens) (UniProt P61088)", "active"],
  ["Cc1ccc(NC(=O)C2CCN(c3ncnc4c3nc3n4CCCC3)CC2)cc1F", "Ubiquitin-conjugating enzyme E2 N (Homo sapiens) (UniProt P61088)", "inactive"],
  ["O=C(C1CCN(c2ncnc3c2nc2n3CCCCC2)CC1)N1CCOCC1", "Ubiquitin-conjugating enzyme E2 N (Homo sapiens) (UniProt P61088)", "inactive"],
  ["O=C(NCC1CCN(Cc2ccc(Cl)c(Cl)c2)CC1)C1CCCN(c2ncnc3c2nc2n3CCCCC2)C1 (centres undefined)", "Ubiquitin-conjugating enzyme E2 N (Homo sapiens) (UniProt P61088)", "active"],
  ["Cc1ccc(NC(=O)C2CCCN(c3ncnc4c3nc3n4CCCCC3)C2)cc1F (centres undefined)", "Ubiquitin-conjugating enzyme E2 N (Homo sapiens) (UniProt P61088)", "inactive"],
  ["O=C(NCC1CCN(Cc2ccc(Cl)cc2)CC1)C1CCCN(c2ncnc3c2nc2n3CCCC2)C1 (centres undefined)", "Ubiquitin-conjugating enzyme E2 N (Homo sapiens) (UniProt P61088)", "active"]
]}

----------
- MEASURED_TARGET: UniProtKB P61088
- ASSAY_DETAILS: UBC13 polyubiquitination inhibitors, SAR follow-up, biochemical, TR-FRET, set 4 (AID 602404)
Calls of active or inactive are those of the source. The rule behind the calls is not given here.
Classes used: t for active, f for inactive

{"columns": ["MOLECULE", "LABEL"],
 "data": [
  ["Cc1ccc(NC(=O)C2CCN(c3ncnc4c3nc3n4CCCCC3)CC2)c(Cl)c1", "f"],
  ["COc1ccc(Cl)cc1NC(=O)C1CCN(c2ncnc3c2nc2n3CCCCC2)CC1", "f"],
  ["Cc1cccc(NC(=O)C2CCN(c3ncnc4c3nc3n4CCCCC3)CC2)c1", "f"],
  ["Cc1ccc(NC(=O)C2CCN(c3ncnc4c3nc3n4CCCCC3)CC2)cc1F", "f"],
  ["O=C(C1CCN(c2ncnc3c2nc2n3CCCCC2)CC1)N1CCN(Cc2ccccc2)CC1", "t"],
  ["O=C(NCc1ccc(Cl)c(Cl)c1)C1CCN(c2ncnc3c2nc2n3CCCCC2)CC1", "f"],
  ["Cc1ccccc1CN1CCC(CNC(=O)C2CCCN(c3ncnc4c3nc3n4CCCCC3)C2)CC1 (stereo not given)", "t"],
  ["O=C(NCc1ccc(Cl)c(Cl)c1)C1CCCN(c2ncnc3c2nc2n3CCCCC2)C1 (stereo not given)", "f"],
  ["Cc1ccc(NC(=O)C2CCCN(c3ncnc4c3nc3n4CCCCC3)C2)cc1Br (stereo not given)", "f"],
  ["CCC1CCCCN1CCCNC(=O)C1CCN(c2ncnc3c2nc2n3CCCCC2)CC1 (stereo not given)", "t"]
]}

----------
- MEASURED_TARGET: Ubiquitin-conjugating enzyme E2 N (Homo sapiens)
- ASSAY_DETAILS: UBC13 polyubiquitination inhibitors, SAR follow-up, biochemical, TR-FRET, set 4 (AID 602404)
Active and inactive are the calls of the source. How the calls were made is not given here.
Possible outcomes: YES for active, NO for inactive

{"columns": ["COMPOUND", "LABEL"],
 "data": [
  ["Cc1ccc(NC(=O)C2CCCN(c3ncnc4c3nc3n4CCCC3)C2)cc1Br (centres undefined)", "NO"],
  ["Cc1cccc(NC(=O)C2CCN(c3ncnc4c3nc3n4CCCC3)CC2)c1", "NO"],
  ["CC1CCCCN1C(=O)C1CCN(c2ncnc3c2nc2n3CCCCC2)CC1 (centres undefined)", "NO"],
  ["Cc1cccc(NC(=O)C2CCN(c3ncnc4c3nc3n4CCCCC3)CC2)c1C", "NO"],
  ["O=C(NCC1CCN(Cc2cccc(Cl)c2)CC1)[C@H]1CCCN(c2ncnc3c2nc2n3CCCCC2)C1", "YES"],
  ["O=C(NCC1CCN(Cc2ccc(Cl)c(Cl)c2)CC1)C1CCCN(c2ncnc3c2nc2n3CCCC2)C1 (centres undefined)", "YES"],
  ["Cc1cc(C)cc(NC(=O)C2CCN(c3ncnc4c3nc3n4CCCC3)CC2)c1", "NO"],
  ["O=C(NCc1cccc(Cl)c1)C1CCN(c2ncnc3c2nc2n3CCCC2)CC1", "YES"],
  ["O=C(Nc1cccc(Cl)c1)C1CCN(c2ncnc3c2nc2n3CCCCC2)CC1", "YES"],
  ["O=C(NCc1ccc(Cl)c(Cl)c1)C1CCCN(c2ncnc3c2nc2n3CCCC2)C1 (centres undefined)", "NO"],
  ["O=C(c1ccco1)N1CCN(C(=O)C2CCN(c3ncnc4c3nc3n4CCCCC3)CC2)CC1", "NO"],
  ["COc1cc(OC)c(NC(=O)C2CCN(c3ncnc4c3nc3n4CCCCC3)CC2)cc1Cl", "NO"],
  ["Cc1ccc(NC(=O)C2CCN(c3ncnc4c3nc3n4CCCC3)CC2)cc1C", "NO"],
  ["O=C(NCc1cccc(Cl)c1)C1CCCN(c2ncnc3c2nc2n3CCCCC2)C1 (centres undefined)", "NO"],
  ["O=C(C1CCN(c2ncnc3c2nc2n3CCCCC2)CC1)N1CCN(c2ncccn2)CC1", "NO"],
  ["O=C(NCC1CCN(Cc2ccccc2Cl)CC1)C1CCCN(c2ncnc3c2nc2n3CCCCC2)C1 (centres undefined)", "YES"],
  ["O=C(C1CCN(c2ncnc3c2nc2n3CCCCC2)CC1)N1CCN(c2ccc(F)cc2)CC1", "NO"],
  ["O=C(NCC1CCN(Cc2cccc(Cl)c2)CC1)C1CCCN(c2ncnc3c2nc2n3CCCC2)C1 (centres undefined)", "YES"],
  ["Cc1c(Cl)cccc1NC(=O)C1CCN(c2ncnc3c2nc2n3CCCCC2)CC1", "YES"],
  ["Cc1cc(C)cc(NC(=O)C2CCCN(c3ncnc4c3nc3n4CCCCC3)C2)c1 (centres undefined)", "NO"],
  ["O=C(NCC1CCN(Cc2ccc(F)cc2)CC1)C1CCCN(c2ncnc3c2nc2n3CCCCC2)C1 (centres undefined)", "YES"],
  ["O=C(NCC1CCN(Cc2ccccc2Cl)CC1)C1CCCN(c2ncnc3c2nc2n3CCCC2)C1 (centres undefined)", "YES"],
  ["Cc1ccc(NC(=O)C2CCCN(c3ncnc4c3nc3n4CCCC3)C2)cc1C (centres undefined)", "NO"],
  ["O=C(NCCCN1CCN(c2ccccc2)CC1)C1CCCN(c2ncnc3c2nc2n3CCCCC2)C1 (centres undefined)", "YES"],
  ["O=C(C1CCN(c2ncnc3c2nc2n3CCCCC2)CC1)N1CCN(c2ccccc2)CC1", "NO"],
  ["Cc1ccc(NC(=O)C2CCCN(c3ncnc4c3nc3n4CCCC3)C2)cc1F (centres undefined)", "NO"],
  ["COc1cc(Cl)c(C)cc1NC(=O)C1CCN(c2ncnc3c2nc2n3CCCCC2)CC1", "NO"],
  ["CN(CCNC(=O)C1CCN(c2ncnc3c2nc2n3CCCCC2)CC1)Cc1ccccc1", "YES"],
  ["CCCN1CCN(C(=O)C2CCN(c3ncnc4c3nc3n4CCCCC3)CC2)CC1", "YES"],
  ["Cc1ccc(NC(=O)C2CCN(c3ncnc4c3nc3n4CCCCC3)CC2)cc1Br", "NO"],
  ["O=C(NCC1CCN(Cc2cccc(Cl)c2)CC1)[C@@H]1CCCN(c2ncnc3c2nc2n3CCCCC2)C1", "YES"],
  ["O=C(NCc1cccc(Cl)c1)C1CCN(c2ncnc3c2nc2n3CCCCC2)CC1", "NO"],
  ["COc1ccccc1N1CCN(CCCNC(=O)C2CCCN(c3ncnc4c3nc3n4CCCCC3)C2)CC1 (centres undefined)", "NO"],
  ["O=C(NCCCN1CCCCC1)C1CCN(c2ncnc3c2nc2n3CCCCC2)CC1", "YES"],
  ["Cc1cccc(N2CCN(CCCNC(=O)C3CCCN(c4ncnc5c4nc4n5CCCCC4)C3)CC2C)c1 (centres undefined)", "YES"],
  ["O=C(C1CCN(c2ncnc3c2nc2n3CCCCC2)CC1)N1CCC(Cc2ccccc2)CC1", "YES"],
  ["O=C(Nc1cc(F)ccc1F)C1CCN(c2ncnc3c2nc2n3CCCCC2)CC1", "NO"],
  ["Cc1cc(C)cc(NC(=O)C2CCCN(c3ncnc4c3nc3n4CCCC3)C2)c1 (centres undefined)", "NO"],
  ["O=C(NCC1CCN(Cc2cccc(Cl)c2)CC1)[C@@H]1CCCN(c2ncnc3c2nc2n3CCCC2)C1", "YES"]
]}
